# System: Danio rerio larvae (5 dpf)
# protocolDetails: difference in excitability vs DMSO (percentage points); higher = more excitable than DMSO
# assayContext: 10 µM; exposure time 6 h
Structures can show the parent of a compound that is named as a salt.
The following molecules are shown together with reported difference in excitability values.
Number, no unit, nothing else.

Take a look at these entries with their results.
# molecule, experimentalResult
data = [
    ("Cc1oncc1C(=O)Nc1ccc(C(F)(F)F)cc1 [Leflunomide]", 20.4),
    ("CCOC(=O)O[C@]1(C(=O)COC(=O)CC)CC[C@H]2[C@@H]3CCC4=CC(=O)C=C[C@]4(C)[C@H]3[C@@H](O)C[C@@]21C [Prednicarbate]", 10.3),
    ("CCC(=O)O[C@]1(C(=O)SCF)[C@H](C)C[C@H]2[C@@H]3C[C@H](F)C4=CC(=O)C=C[C@]4(C)[C@@]3(F)[C@@H](O)C[C@@]21C [Fluticasone Propionate]", -4.47),
]

Kindly review the next molecule as well.
Ask | Consider the molecule shown here: CN1CCN(CCCN2c3ccccc3Sc3ccc(C(F)(F)F)cc32)CC1 [Trifluoperazine (hydrochloride)] What is its recorded difference in excitability?
Reply | 11.8

###

# Tested on: Danio rerio larvae (5 dpf)
# protocolDetails: difference in habituation to acoustic stimuli vs DMSO (percentage points); higher = more habituation than DMSO
# assayContext: 10 µM; exposure time 6 h
readoutName: difference in habituation to acoustic stimuli

# compound, assayedSystem, experimentalResult
data = [
    ("NC(=O)OCC(COC(N)=O)c1ccccc1 [Felbamate]", "Danio rerio larvae (5 dpf)", -0.648),
]

Ask | Provide value of difference in habituation to acoustic stimuli for this record tested with Danio rerio larvae (5 dpf): CC[C@H](C)C[C@H](C)CCCCCCCCC(=O)N[C@H]1C[C@@H](O)[C@@H](NCCN)NC(=O)[C@@H]2[C@@H](O)CCN2C(=O)[C@H]([C@H](O)CCN)NC(=O)[C@H]([C@H](O)[C@@H](O)c2ccc(O)cc2)NC(=O)[C@@H]2C[C@@H](O)CN2C(=O)[C@H]([C@@H](C)O)NC1=O [Caspofungin (acetate)]
Reply | -0.0911

Ask | Request: difference in habituation to acoustic stimuli, test system Danio rerio larvae (5 dpf), entry COC(=O)N[C@H](C(=O)N[C@@H](Cc1ccccc1)[C@@H](O)CN(Cc1ccc(-c2ccccn2)cc1)NC(=O)[C@@H](NC(=O)OC)C(C)(C)C)C(C)(C)C [Atazanavir]
Reply | -0.953

Ask | Query the reported difference in habituation to acoustic stimuli for Danio rerio larvae (5 dpf); item: Nc1nc(=S)c2[nH]cnc2[nH]1 [6-Thioguanine]
Reply | 0.958

Ask | Missing value: difference in habituation to acoustic stimuli, Danio rerio larvae (5 dpf), entry N#CC[C@H](C1CCCC1)n1cc(-c2ncnc3[nH]ccc23)cn1 [Ruxolitinib (phosphate)] . Fill in?
Reply | -4.72

Ask | difference in habituation to acoustic stimuli of CC(=O)Oc1cc2c(s1)CCN(C(C(=O)C1CC1)c1ccccc1F)C2 (centres undefined) [Prasugrel] on Danio rerio larvae (5 dpf)?
Reply | 8.33

Ask | For Danio rerio larvae (5 dpf), provide difference in habituation to acoustic stimuli of CC1(C)O[C@@H]2[C@@H](CO[C@@]3(COS(N)(=O)=O)OC(C)(C)O[C@@H]23)O1 [Topiramate] please.
Reply | 1.75

Ask | Give Danio rerio larvae (5 dpf) difference in habituation to acoustic stimuli for OCCN1C[C@H](O)[C@@H](O)[C@H](O)[C@H]1CO [Miglitol]
Reply | -2.04

Ask | // lookup difference in habituation to acoustic stimuli | system=Danio rerio larvae (5 dpf) | key= CCC(=O)O[C@]1(C(=O)SCF)[C@H](C)C[C@H]2[C@@H]3C[C@H](F)C4=CC(=O)C=C[C@]4(C)[C@@]3(F)[C@@H](O)C[C@@]21C [Fluticasone Propionate]
Reply | 1.17
